Data provenance is ChEMBL document CHEMBL5303573.

experiment: The drug is tested on Collinsella aerofaciens strain: ATCC25986 for biotransformation. The drug concentrations were measured before and after a 12-h incubation by liquid-chromatography-coupled mass spectrometry (LC–MS); conditions: 2 µM
READOUT KIND: Bacterial Biotransformation

1. O=C(O[C@H]1C[C@H]2CC[C@@H](C1)[N+]21CCCC1)C(O)(c1ccccc1)c1ccccc1.[Cl-] [TROSPIUM CHLORIDE] : Compound NOT metabolized
2. CCN(C)C(=O)Oc1cccc([C@H](C)N(C)C)c1.O=C(O)C(O)C(O)C(=O)O [RIVASTIGMINE TARTRATE] : Compound NOT metabolized
3. CN1C(=O)CCS(=O)(=O)C1c1ccc(Cl)cc1 (centres undefined) : Compound NOT metabolized
4. CN1[C@@H]2CC[C@H]1C[C@@H](OC(=O)c1c[nH]c3ccccc13)C2 : Compound NOT metabolized
